# Test system: Mycobacterium tuberculosis variant bovis
# Run description: Antimycobacterial activity against Mycobacterium bovis assessed as 90 percent growth inhibition measured after 120 hrs by turbidometric analysis
# Format: functional

[
  {
    "Compound": "COc1nc2ccc(Br)cc2cc1C(c1ccccc1)n1cc(CO)nn1 (stereo not given)",
    "Measured on": "Mycobacterium tuberculosis variant bovis",
    "MIC90": "131 µM"
  },
  {
    "Compound": "COc1nc2ccc(Br)cc2cc1C(c1ccccc1)n1cc(-c2ccc(OC(F)(F)F)cc2)nn1 (stereo not given)",
    "Measured on": "Mycobacterium tuberculosis variant bovis",
    "MIC90": "41 µM"
  },
  {
    "Compound": "NNC(=O)c1ccncc1 [ISONIAZID]",
    "Measured on": "Mycobacterium tuberculosis variant bovis",
    "MIC90": "12.5 µM"
  },
  {
    "Compound": "COc1nc2ccc(Br)cc2cc1C(c1ccccc1)n1cc(-c2cccc(F)c2)nn1 (stereo not given)",
    "Measured on": "Mycobacterium tuberculosis variant bovis",
    "MIC90": "31.4 µM"
  },
  {
    "Compound": "CCCCCCCCc1cn(C(c2ccccc2)c2cc3cc(Br)ccc3nc2OC)nn1 (stereo not given)",
    "Measured on": "Mycobacterium tuberculosis variant bovis",
    "MIC90": "34.9 µM"
  },
  {
    "Compound": "COc1nc2ccc(Br)cc2cc1C(c1ccccc1)n1cc(-c2ccccc2C(F)(F)F)nn1 (stereo not given)",
    "Measured on": "Mycobacterium tuberculosis variant bovis",
    "MIC90": "174 µM"
  },
  {
    "Compound": "CCCCc1cn(C(c2ccccc2)c2cc3cc(Br)ccc3nc2OC)nn1 (stereo not given)",
    "Measured on": "Mycobacterium tuberculosis variant bovis",
    "MIC90": "50.2 µM"
  },
  {
    "Compound": "CCCCCCCc1cn(C(c2ccccc2)c2cc3cc(Br)ccc3nc2OC)nn1 (stereo not given)",
    "Measured on": "Mycobacterium tuberculosis variant bovis",
    "MIC90": "71.9 µM"
  },
  {
    "Compound": "COc1nc2ccc(Br)cc2cc1C(c1ccccc1)n1cc(-c2ccc(Br)cc2)nn1 (stereo not given)",
    "Measured on": "Mycobacterium tuberculosis variant bovis",
    "MIC90": "49 µM"
  }
]

The values you see were collected from ChEMBL document CHEMBL4396974.
